# System: MS2 coat protein
# assay procedure: apparent Kd, MS2 coat protein; higher = weaker binding; RNA-MaP array
# condition notes: designed as: ON switch for flavin mononucleotide; no ligand
experimental endpoint: apparent Kd (nM)
Express your answer in nM, writing the number without its unit.

What value of measured apparent Kd is listed for CGAGAAUAUACAGGAUAUGGCGGAACCCAUUACAUGAGGAUCACCCAUGUACCAUGGAAAAGAGUCCAGAAGGGUAGAAUCAAA ?
8.1

I'd like to know its apparent Kd. The sequence in question is GGGCGUGGAGUAGGAUAUCCUGUAUACAUGAGGAUCACCCAUGUACAUAUCUAGUAUUACCGUUUGGAGAAGGACUGUUGGGCU
11.5

What value of apparent Kd has been recorded for this entry: AUGGACCCAAAGAAGGAGAUCUGGACGACCCAUCUAGGAUAUUUGGCGCGCCCAUCCACCUGCACAUGAGGAUCACCCAUGUCG
11.9

# lookup: apparent Kd of UAGACGCACAAACAUGAGGAUCACCCAUGUGUACAGACGCUGCAGGAUAUCCUCUGAAGUUAGUAGGAGAAGGGCAAACAACCU
44.5

---

# Tested on: MS2 coat protein
# assay procedure: apparent Kd, MS2 coat protein; higher = weaker binding; RNA-MaP array; FMN 200 µM where present
# condition notes: ligand present: flavin mononucleotide; designed as: ON switch for flavin mononucleotide
Label 1 for high-side apparent Kd (at or above 10 nM) and 0 for low-side apparent Kd (below it).

Identify whether the reported apparent Kd of the following sequence is 10 nM or greater: GUGGUCAGACAUGAGGAUCACCCAUGUGGAAUAAAUAAGGAAUAGGAUAUCGAAUAUAGGAUAUACGAGAAGGGUUGGUUGGUG
1

hey, is apparent Kd for this one >= 10 nM? GGAGACCUCGCAGGAUAUGCUGGACUUUGUCCAGCAGAAGGGUGAAAACAUGAGGAUCACCCAUGUAUGGUCUCCAAAUUUAAU
1

# bool: apparent Kd of GGUACUAUCACAGGAUAUGCUUUCCUUUGGGAAGCAGAAGGGUGUAACAUGAGGAUCACCCAUGUGGUGCCCGGGCGUGAGCCC >= 10 nM
1

Given the entry AAUUAGGUCACAGGAUAUACAACAUCCAAUGCUGUAGAAGGGUGUCACAAUCAUAGCUGACAUGAGGAUCACCCAUGUAUCCAC , answer whether its apparent Kd meets or surpasses 10 nM.
1

Reported apparent Kd at or above 10 nM? CGUAGGAUCCAGAAGGCAUGAACAUGAGGAUCACCCAUGUCAAUAGACAUGAGGAUAUGGAUCCUACGAAAAGUGCGAAAGCAC
0

Record AAAGGUGAUUCAGGAUAUGUGUAGGAGGGCGGCGCAGAAGGGAAUCUAGCCCGACGUCAUACAUGAGGAUCACCCAUGUAUGCC ; criterion: apparent Kd no lower than 10 nM. Met?
1

---

Hi there, I'd appreciate the recorded apparent Kd for every entry that follows.
# Test system: MS2 coat protein
# assay procedure: apparent Kd, MS2 coat protein; higher = weaker binding; RNA-MaP array; FMN 200 µM where present
# condition notes: designed as: ON switch for flavin mononucleotide; no ligand
Answer with a number only, understood to be in µM.

Could you tell me which apparent Kd is on file for CGCUAUUACAUGAGGAUCACCCAUGUAUAUAUUGUAUUUUCGUAGGAUAUGCAGAAGAUUAAAGUGCAGAAGGACGUAAUAGCG ?
0.0291

Which apparent Kd is reported for this sequence? GUUGCUAUCGGAGGAUAUUCAUACCGGAAACGGACAUGAGGAUCACCCAUGUCGCGAAAGCGUUGGGAGAAGGCCGAUAGCAAC
0.248

Please give the measured apparent Kd for this sequence: GUGGCACAUGAGGAUCACCCAUGUAGGUAGAACAUAGGAUAUCACCAACAAAAUACCUGGUGAGAAGGAUGAUGCC
0.166

For GCGUAUAAGGUGUAGCUAGACAUUCAAGAAGGGUGAAGAACAUGAGGAUCACCCAUGUAGUAGGUACAGGAUAUUGAUUUACGC , what is its reported apparent Kd?
0.656

// returns reported apparent Kd for input GACCCAAAUGAGAAGGUGUGUAUAAAUUAUAUACAAGGAUAUCGGUCGAGCGUGUUGACAUGAGGAUCACCCAUGUUGUGGGUU
0.0571

Fill in: apparent Kd of GGUUGACGACAAUUACAUGAGGAUCACCCAUGUUUUGGGAUGCAGGAUAUGUGGUAUAUUAAUUAACAGAAGGGCAAUAAUUUU is ___
0.0373

Tell me the measured apparent Kd of ACCAGUGACACAGGAUAUCCGUGCAUGUAGCACGGAGAAGGGUGUUCCAAUCAACUCACAUGAGGAUCACCCAUGUGCUACUUG , please.
0.176
